Test: NCI Yeast Anticancer Drug Screen. Data for the rad50 strain (AID 155);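 also: 0% = growth of vehicle-only cultures of the same strain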
Conditions: S. cerevisiae rad50 strain growth inhibition; at 50.0 µM; active compounds read high
Compounds without any hit were thinned out: in the full panel of roughly 79,000, 15% have a hit.
Each record here notes measured growth inhibition.
API: value field is a number in %; no unit string.

Worked cases, growth inhibition given:
# Compound, Unit Annotation, growth inhibition
measured = [
    ("O=C(Cl)c1ccc2ccccc2c1", "%", 45.8),
    ("O=C1c2ccccc2C(=O)N1OCc1csc(-c2ccccc2)n1", "%", 5.5),
    ("CC1C(=O)CCC2C1(C)CCC1C2(C)CCC2(C)C3CC(C)(C)CCC3(C)CCC12C (stereo not given)", "%", 18.4),
    ("COc1ccc(CC(C)SC(CC(=O)O)C(=O)O)cc1 (stereo not given)", "%", 3.45),
    ("CN(C(=O)C12C3C4C1C1C2C3C41C(=O)N(C)C(C)(C)C)C(C)(C)C (stereo not given)", "%", 13.9),
    ("COc1ccc2nc(NC(=O)C(=O)C(C(=O)c3ccccc3-c3ccccc3)C3OC(=O)c4ccccc43)sc2c1 (stereo not given)", "%", -3.6),
    ("Cc1cc(O)c2c(c1)C[C@@H](O)C1=C2C(=O)c2c(O)ccc(OC3CC(O)C(OC4CC(OC5CCC(OC6CC(O)C(OC7CC(OC8CCC(O)C(C)O8)C(O)C(C)O7)C(C)O6)C(C)O5)C(O)C(C)O4)C(C)O3)c2C1=O (stereo not given in full)", "%", 88.5),
    ("O=C(COc1ccc(Cl)cc1)N(c1ccccc1)C1CCCCC1", "%", 95.9),
    ("O=C(CCn1[nH]c(=O)c(Cl)c(Cl)c1=O)NNC(=O)C[n+]1ccccc1", "%", -4.2),
]

Attention now shifts to the item below.
Q) Requested field: growth inhibition. Item: O=c1c2ccccc2c(=O)n2n1C1CCC2C1
A) 7.05
